target: hCA II (Homo sapiens, UniProt P00918); construct: we have purified CA I and II (hCA I and hCA II) from human erythrocytes; assay: hCA II inhibition, esterase assay with 4-nitrophenylacetate as substrate; settings: 4-nitrophenylacetate substrate, mean from at least three determinations, enzyme purified from human erythrocytes
property-name: pKi
pKi here: minus log base 10 of the concentration, concentration in moles per litre.

Worked examples follow.
INSERT INTO results (compound, target_under_test, property_name, number) VALUES
  ('Cn1c(N)cc(=O)n(C)c1=O [6-Amino 1,3-Dimethyluracil (11), 6-Amino 1,3-Dimethyluracil]', 'hCA II (Homo sapiens, UniProt P00918)', 'pKi', 6.77),
  ('O=C(O)c1c[nH]c(=O)[nH]c1=O [Isoorotic acid (10), isoorotic acid]', 'hCA II (Homo sapiens, UniProt P00918)', 'pKi', 5.84),
  ('O=C(O)c1cc(=O)[nH]c(=O)[nH]1 [Orotic acid (9), Orotic acid]', 'hCA II (Homo sapiens, UniProt P00918)', 'pKi', 5.77);

Provide value of pKi for this record tested with hCA II (Homo sapiens, UniProt P00918): Cn1c(N)c(N)c(=O)n(C)c1=O [5,6-Diamino 1,3-Dimethyluracil (12), 5,6-Diamino 1,3-Dimethyluracil] 6.63
